Ref: paper PMC9919490

Below: a set of entries, each annotated with reported IC50.
- Tested on: LNCaP cells
- method.notes: MTT cytotoxicity assay, LNCaP (p53 pos)
- Assay type: cell-based
- reported.conditions: 48 h
Supply the numeric figure in µM, leaving out any unit text.

# compound, IC50 [µM]
records = [
    ("CN1C[C@H](c2cccc(Cl)c2)[C@]2(NC(=S)N(c3ccc(F)c(Cl)c3)C2=O)[C@]12C(=O)Nc1ccc(Cl)cc12 (racemic)", 3.2),
]

Field: next compound
Query string: Give its IC50 value. Item: CN1C[C@H](c2ccc(Cl)cc2)[C@]2(NC(=S)N(c3ccccc3)C2=O)[C@]12C(=O)Nc1ccc(Br)cc12 (racemic)
Result string: 1.2

---

- Tested on: PC3 cells
- method.notes: MTT cytotoxicity assay, PC3 (p53 neg)
- Assay type: cell-based
- reported.conditions: 48 h
reported.metric: IC50

Previously resolved entries follow.
# compound, tested.on, IC50
measured = [
    ("CN1C[C@H](c2ccc(Cl)cc2)[C@]2(NC(=S)N(c3ccc(F)cc3)C2=O)[C@]12C(=O)Nc1ccc(Br)cc12 (racemic)", "PC3 cells", "> 100 µM"),
    ("CN1C[C@H](c2ccccc2Cl)[C@]2(NC(=S)N(c3ccc(Cl)cc3)C2=O)[C@]12C(=O)Nc1ccc(Cl)cc12 (racemic)", "PC3 cells", "> 100 µM"),
    ("CCOc1ccc(N2C(=O)[C@]3(NC2=S)[C@@H](c2ccc(F)cc2)CN(C)[C@@]32C(=O)Nc3ccccc32)cc1 (racemic)", "PC3 cells", "> 100 µM"),
]

Query string: Please state recorded IC50 (tested on PC3 cells) of CC(c1ccccc1)N1C(=O)C2(NC1=S)C(c1cccc(Cl)c1)CN(C)C21C(=O)Nc2ccc(Br)cc21 (mixture of isomers)
Result string: 8.8 µM

Query string: # iterate: COc1ccc(N2C(=O)[C@]3(NC2=S)[C@@H](c2cccc(Cl)c2)CN(C)[C@@]32C(=O)Nc3ccc(Br)cc32)cc1Cl (racemic)
Result string: > 50 µM

---

- System: LNCaP cells
- method.notes: MTT cytotoxicity assay, LNCaP (p53 pos)
- Assay type: cell-based
- reported.conditions: 48 h
pIC50: −log10 of the molar value.
Below: a set of entries, each annotated with reported pIC50.

Previously resolved entries follow.
# molecule, reported.metric, reported.result
data = [
    ("CN1C[C@H](c2ccncc2)[C@]2(NC(=S)N(c3ccccc3)C2=O)[C@]12C(=O)Nc1ccccc12 (racemic)", "pIC50", "< 4.00"),
    ("CN1C[C@H](c2ccccn2)[C@]2(NC(=S)N(c3ccccc3)C2=O)[C@]12C(=O)Nc1ccc(Br)cc12 (racemic)", "pIC50", "< 4.00"),
    ("CN1C[C@H](c2ccccc2Cl)[C@]2(NC(=S)N(c3ccccc3)C2=O)[C@]12C(=O)Nc1ccc(Br)cc12 (racemic)", "pIC50", "< 4.00"),
    ("CN1C[C@H](c2ccccc2Br)[C@]2(NC(=S)N(c3ccccc3)C2=O)[C@]12C(=O)Nc1ccccc12 (racemic)", "pIC50", "< 4.00"),
    ("COc1ccc(C2CN(C)C3(C(=O)Nc4ccc(Cl)cc43)C23NC(=S)N(c2ccc(Cl)cc2)C3=O)cc1OC (stereo not shown)", "pIC50", "< 4.00"),
    ("CCOc1ccc([C@H]2CN(C)[C@@]3(C(=O)Nc4ccccc43)[C@@]23NC(=S)N(c2ccc(F)cc2)C3=O)cc1 (racemic)", "pIC50", "< 4.00"),
    ("COc1ccc([C@H]2CN(C)[C@@]3(C(=O)Nc4ccc(Br)cc43)[C@@]23NC(=S)N(c2ccc(O)cc2)C3=O)cc1OC (racemic)", "pIC50", 5.05),
    ("CN1C[C@H](c2ccc(Cl)cc2)[C@]2(NC(=S)N(c3ccc(O)cc3)C2=O)[C@]12C(=O)Nc1ccc(Cl)cc12 (racemic)", "pIC50", "< 4.00"),
]

Query string: Please state recorded pIC50 (tested on LNCaP cells) of CC(c1ccccc1)N1C(=O)C2(NC1=S)C(c1ccccc1Cl)CN(C)C21C(=O)Nc2ccc(Cl)cc21 (mixture of isomers)
Result string: < 4.00

Query string: # iterate: CN1C[C@H](c2ccc(Cl)cc2)[C@]2(NC(=S)N(c3ccc(Cl)cc3)C2=O)[C@]12C(=O)Nc1ccc(Cl)cc12 (racemic)
Result string: < 4.00
